test system: TC-32; experiment: Reduction in CCK gene expression in human TC32 cells at GI50 level after 6 hrs by qRT-PCR method; assay type: functional, cell-based
Activity calls are given as the source filed them. The rule behind the calls is not given here.
recorded endpoint: Activity

{"structure smiles string": "COC(=O)[C@H](Cc1c[nH]c2ccccc12)NC(=O)[C@H](Cc1ccccc1)NC(=O)[C@@H](OC)[C@@H]1Cc2cc3cc(O[C@H]4C[C@@H](O[C@H]5C[C@@H](O)[C@H](O)[C@@H](C)O5)[C@H](O)[C@@H](C)O4)c(C)c(O)c3c(O)c2C(=O)[C@H]1O[C@H]1C[C@@H](O[C@H]2C[C@@H](O[C@H]3C[C@](C)(O)[C@H](O)[C@@H](C)O3)[C@@H](O)[C@@H](C)O2)[C@H](O)[C@@H](C)O1", "value reported": "inactive"}
{"structure smiles string": "COC(=O)[C@H](Cc1c[nH]c2ccccc12)NC(=O)[C@H](Cc1c[nH]c2ccccc12)NC(=O)[C@@H](OC)[C@@H]1Cc2cc3cc(O[C@H]4C[C@@H](O[C@H]5C[C@@H](O)[C@H](O)[C@@H](C)O5)[C@H](O)[C@@H](C)O4)c(C)c(O)c3c(O)c2C(=O)[C@H]1O[C@H]1C[C@@H](O[C@H]2C[C@@H](O[C@H]3C[C@](C)(O)[C@H](O)[C@@H](C)O3)[C@@H](O)[C@@H](C)O2)[C@H](O)[C@@H](C)O1", "value reported": "inactive"}
{"structure smiles string": "COC(=O)[C@H](Cc1c[nH]c2ccccc12)NC(=O)[C@@H](OC)[C@@H]1Cc2cc3cc(O[C@H]4C[C@@H](O[C@H]5C[C@@H](O)[C@H](O)[C@@H](C)O5)[C@H](O)[C@@H](C)O4)c(C)c(O)c3c(O)c2C(=O)[C@H]1O[C@H]1C[C@@H](O[C@H]2C[C@@H](O[C@H]3C[C@](C)(O)[C@H](O)[C@@H](C)O3)[C@@H](O)[C@@H](C)O2)[C@H](O)[C@@H](C)O1", "value reported": "inactive"}
